// TGI lookup, one value per entry
- System: CCRF-CEM leukemia
- assay_comment: NCI tumour cell line growth inhibition, 48 h

// known answers, use as guide
# compound, TGI
rows = [
    ("c1ccc2c(c1)[nH]c1nc3cc(-c4ccc5nc6c(nc5c4)[nH]c4ccccc46)ccc3nc12", "> 100 µM"),
    ("N#Cc1cnc2cc(OC[C@H](O)CO)c(NC(=O)CC3CSSC3)cc2c1Nc1ccc(OCc2cccc(F)c2)c(Cl)c1", "0.251 µM"),
    ("CN1CCN(CCc2cccc(C(=O)c3cnn(-c4ccc(F)cc4)c3N)c2)CC1", "> 25 µM"),
    ("O=C(c1ccccc1)C1N=NCC1c1ccc([N+](=O)[O-])cc1 (stereo not given)", "> 100 µM"),
    ("Cc1cn2c(/C=C3/C(=O)Nc4cccc(Cl)c43)c(Cl)nc2s1", "28 µM"),
    ("CN(C)c1ccc(-c2c(C#N)c(S)n(NS(=O)(=O)c3ccccc3)c(=O)c2C#N)cc1", "> 100 µM"),
    ("O=c1c2c([nH]c3cc4c(cc13)OCO4)-c1ccccc1CC2", "> 100 µM"),
    ("Cc1ccc(S(=O)(=O)Oc2cc(N)c3c(n2)CCC3)cc1", "> 100 µM"),
    ("CCN(Cc1ccc(F)c(F)c1)c1ccc(CO)c(Cl)c1", "47 µM"),
]

Proceeding to the next compound to report its TGI.
Report TGI, nothing else, for this compound: "CCCCN1CCN(c2ccc3nc(-c4ccc5nc(-c6ccc(C(F)(F)F)cc6)[nH]c5c4)[nH]c3c2)CC1"
0.945 µM
